- tested.on: T1, HLA-DR9 (DRB1*0901) (human)
- T1 chain 1: not shown
- T1 chain 2: not shown
Classification field: enter true (1) for binding affinity ratio (IC50 of standard peptide / IC50 of test peptide) values not below 0.04, false (0) for values below it.

Use these answered entries as a reference point.
IGPFMKAVCVEVEKT (modifications not checked) [… (Pf SSP2 227)]; true (1)
MKILSVFFLALFFII (modifications not checked) [… (Pf EXP 1)]; false (0)
LIDVHDLISDMIKKE (modifications not checked) [… (Pf EXP 47)]; true (1)
ANQLVVILTDGIPDS (modifications not checked) [… (Pf SSP2 153)]; true (1)

Now take the following binder into account.
Task: Can RHPFKIGSSDPADNA (modifications not checked) [… (Pf EXP 107)] be said to have binding affinity ratio (IC50 of standard peptide / IC50 of test peptide) at or above 0.04?
Result: true (1)

Value source: patent US9266930
